Here, compounds appear alongside pIC50 reported for Adenosine receptor A1 (Homo sapiens) in the literature.
target-system: Adenosine receptor A1 (Homo sapiens)
Sequence (P30542 whole entry): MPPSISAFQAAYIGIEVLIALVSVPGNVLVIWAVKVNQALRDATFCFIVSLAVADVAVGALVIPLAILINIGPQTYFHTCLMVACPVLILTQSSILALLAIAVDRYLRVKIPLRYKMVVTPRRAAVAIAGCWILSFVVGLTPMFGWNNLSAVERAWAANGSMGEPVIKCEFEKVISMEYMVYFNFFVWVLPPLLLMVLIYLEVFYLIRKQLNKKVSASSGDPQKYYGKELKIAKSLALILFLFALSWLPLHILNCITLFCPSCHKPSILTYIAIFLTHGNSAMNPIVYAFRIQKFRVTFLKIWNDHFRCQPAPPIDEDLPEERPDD
pIC50: −log10 of the molar value.
reported-property: pIC50

>  <compound>
O=c1[nH]c(N2CCCC2)nc2nccc(-c3ccc(Cl)cc3)c12

>  <target-system>
Adenosine receptor A1 (Homo sapiens)

>  <qualifier-operator>
=

>  <measured-value>
5.83

$$$$
>  <compound>
C[C@H](Nc1nc(C(=O)NCCO)c2sccc2n1)c1cccnc1

>  <target-system>
Adenosine receptor A1 (Homo sapiens)

>  <qualifier-operator>
<

>  <measured-value>
6.30

$$$$
>  <compound>
COc1cc(C(=O)NS(=O)(=O)c2ccccc2C)ccc1Cc1cn(C)c2ccc(NC(=O)OC3CCCC3)cc12

>  <target-system>
Adenosine receptor A1 (Homo sapiens)

>  <qualifier-operator>
<

>  <measured-value>
5.00

$$$$
>  <compound>
CCNC(=O)c1cc(C(=O)NCCCN(C)C)cc(-c2cccc(-c3cc(NC(=O)Nc4c(Cl)cncc4Cl)c(=O)n(CC)n3)c2)c1

>  <target-system>
Adenosine receptor A1 (Homo sapiens)

>  <qualifier-operator>
=

>  <measured-value>
6.27

$$$$
>  <compound>
Cc1nc2cnccc2n1-c1ccc(OCc2cccc(/C=C/c3ccc4ccc(Cl)cc4n3)c2)cc1

>  <target-system>
Adenosine receptor A1 (Homo sapiens)

>  <qualifier-operator>
<

>  <measured-value>
5.00

$$$$
>  <compound>
CCn1nc(-c2cccc(-c3cc(C(=O)NCCCN(C)C)cc(C(=O)OC)c3)c2)cc(NC(=O)Nc2c(Cl)cncc2Cl)c1=O

>  <target-system>
Adenosine receptor A1 (Homo sapiens)

>  <qualifier-operator>
=

>  <measured-value>
7.15

$$$$
>  <compound>
CCn1nc(-c2cccc(-c3cccc(C(=O)NCCC4CCCN4C)c3)c2)cc(NC(=O)Nc2c(Cl)cncc2Cl)c1=O (centres undefined)

>  <target-system>
Adenosine receptor A1 (Homo sapiens)

>  <qualifier-operator>
=

>  <measured-value>
8.70

$$$$
>  <compound>
CCn1nc(-c2cccc(-c3cccc(C(=O)NCCCCCCCN(C)CCO)c3)c2)cc(NC(=O)Nc2c(Cl)cncc2Cl)c1=O

>  <target-system>
Adenosine receptor A1 (Homo sapiens)

>  <qualifier-operator>
=

>  <measured-value>
7.89

$$$$
>  <compound>
CCn1nc(-c2cccc(-c3cc(OCC4CC4)cc(C(=O)NCCN4CCCCC4)c3)c2)cc(NC(=O)Nc2c(Cl)cncc2Cl)c1=O

>  <target-system>
Adenosine receptor A1 (Homo sapiens)

>  <qualifier-operator>
=

>  <measured-value>
7.09

$$$$
>  <compound>
CCn1nc(-c2cccc(-c3cccc(C(=O)NCCN4CCCCC4)c3)c2)cc(NC(=O)Nc2c(Cl)cncc2Cl)c1=O

>  <target-system>
Adenosine receptor A1 (Homo sapiens)

>  <qualifier-operator>
=

>  <measured-value>
8.22

$$$$
>  <compound>
Cc1nc2cnccc2n1-c1ccc(OCc2cccc(/C=C/c3nc4cc(F)ccc4s3)c2)cc1

>  <target-system>
Adenosine receptor A1 (Homo sapiens)

>  <qualifier-operator>
<

>  <measured-value>
5.00

$$$$
>  <compound>
CCn1nc(-c2cccc(-c3cc(C(=O)NCCN4CCOCC4)cc(C(=O)NC4CC4)c3)c2)cc(NC(=O)Nc2c(Cl)cncc2Cl)c1=O

>  <target-system>
Adenosine receptor A1 (Homo sapiens)

>  <qualifier-operator>
<

>  <measured-value>
6.00

$$$$
>  <compound>
CCn1nc(-c2cccc(-c3cc(C(=O)NCCO)cc(C(=O)NCCN4CCCCC4)c3)c2)cc(NC(=O)Nc2c(Cl)cncc2Cl)c1=O

>  <target-system>
Adenosine receptor A1 (Homo sapiens)

>  <qualifier-operator>
<

>  <measured-value>
6.00

$$$$
>  <compound>
CCn1nc(-c2cccc(-c3cccc(C(=O)NCCN4CCNCC4)c3)c2)cc(NC(=O)Nc2c(Cl)cncc2Cl)c1=O

>  <target-system>
Adenosine receptor A1 (Homo sapiens)

>  <qualifier-operator>
=

>  <measured-value>
8.70

$$$$
>  <compound>
CCn1nc(-c2cccc(-c3cc(C(=O)NC4CC4)cc(C(=O)NC4CC4)c3)c2)cc(NC(=O)Nc2c(Cl)cncc2Cl)c1=O

>  <target-system>
Adenosine receptor A1 (Homo sapiens)

>  <qualifier-operator>
=

>  <measured-value>
6.49

$$$$
>  <compound>
C[C@H](Nc1nc(C(=O)N[C@H]2CC[C@@H](O)C2)c2sccc2n1)c1ccccn1

>  <target-system>
Adenosine receptor A1 (Homo sapiens)

>  <qualifier-operator>
<

>  <measured-value>
6.30

$$$$
>  <compound>
CCn1nc(-c2cccc(-c3cccc(CC(=O)O)c3)c2)cc(NC(=O)Nc2c(Cl)cncc2Cl)c1=O

>  <target-system>
Adenosine receptor A1 (Homo sapiens)

>  <qualifier-operator>
=

>  <measured-value>
8.30

$$$$
>  <compound>
C#Cc1c(N)nc2c(c1-c1ccc3c(c1)OCO3)CCCC2

>  <target-system>
Adenosine receptor A1 (Homo sapiens)

>  <qualifier-operator>
=

>  <measured-value>
6.38

$$$$
>  <compound>
CCn1nc(-c2cccc(-c3ccc(CC(=O)NCCN4CCCCC4)cc3)c2)cc(NC(=O)Nc2c(Cl)cncc2Cl)c1=O

>  <target-system>
Adenosine receptor A1 (Homo sapiens)

>  <qualifier-operator>
=

>  <measured-value>
7.51

$$$$
>  <compound>
CCn1nc(-c2cccc(-c3cc(C#N)cc(C(=O)NC4CC4)c3)c2)cc(NC(=O)Nc2c(Cl)cncc2Cl)c1=O

>  <target-system>
Adenosine receptor A1 (Homo sapiens)

>  <qualifier-operator>
=

>  <measured-value>
6.20

$$$$
>  <compound>
C[C@H](Nc1nc(C(=O)N2CC(CN)C2)c2sccc2n1)c1cncc(F)c1

>  <target-system>
Adenosine receptor A1 (Homo sapiens)

>  <qualifier-operator>
<

>  <measured-value>
6.30

$$$$
>  <compound>
CCn1nc(-c2cccc(-c3cncc(O)c3)c2)cc(NC(=O)Nc2c(Cl)cncc2Cl)c1=O

>  <target-system>
Adenosine receptor A1 (Homo sapiens)

>  <qualifier-operator>
=

>  <measured-value>
7.96

$$$$
>  <compound>
CCn1nc(-c2cccc(-c3ccc(CC(=O)O)cc3)c2)cc(NC(=O)Nc2c(Cl)cncc2Cl)c1=O

>  <target-system>
Adenosine receptor A1 (Homo sapiens)

>  <qualifier-operator>
=

>  <measured-value>
6.74

$$$$
>  <compound>
CCn1nc(-c2cccc(-c3cccc(C(=O)O)c3)c2)cc(NC(=O)Nc2c(Cl)cncc2Cl)c1=O

>  <target-system>
Adenosine receptor A1 (Homo sapiens)

>  <qualifier-operator>
=

>  <measured-value>
7.77

$$$$
